Ref: a melting point compilation (Tetko et al.)

For each entry below, report its melting point value.

See these solved cases before continuing.
compound	result
COC(=O)c1cc2c(OC)cccc2[nH]1	140 to 142 °C
CC(=O)c1cc2cc(Cl)ccc2o1	97 to 98 °C
Cc1noc(C)c1[N+](=O)[O-]	57 to 60 °C

Now, please, on to the next molecule.
Query: Give the measured melting point of Cc1ccc(F)c(C=O)c1Cl .
Result: 46 to 50 °C

* * *

For each entry below, report its melting point value.

See these solved cases before continuing.
compound	melting point
NCCOS(=O)(=O)O	277 to 280 °C
C[C@@H](O)c1ccncc1	68 to 70 °C
O=C(O)c1csnn1	233 to 235 °C
CCOC(=O)CC(=O)c1cc(OC)c(OC)c(OC)c1	86 to 91 °C
O=Cc1ccccc1Oc1ccccn1	51 to 52 °C
Oc1c(Br)cc(Br)cc1-c1cc(Br)cc(Br)c1O	205 °C
CC(=O)OC1C2=C(C(=O)C(OC(C)=O)C3(CC3C)C2=O)C2(C)CCCC(C)(C)C2C1O (stereo unspecified)	172 to 173 °C
CC(C)(C)OC(=O)N1c2ccccc2CC1CO (stereo unspecified)	84 to 89 °C
c1ccc2c(c1)c1ccccc1n2CC1CO1 (stereo unspecified)	110 to 112 °C
O=CC(C=O)c1cnc2ccccc2n1	197 to 199 °C

Query: Give the measured melting point of N#Cc1c(N2CCCC2)cc(Cl)nc1N1CCCC1 .
Result: 132 to 140 °C
